Hey, just so you know, these numbers are from paper PMC6321168.

EXPERIMENT_SUMMARY: Urinary excretion study in rats after oral NS, SF or CNS (LC–MS/MS)
Assay type: in vivo
CONDITION_PARAMETERS: rat urine, oral CNS 110 mg/kg, 72 h
# key: entry, value: Accumulative excretion percentage

[
  {
    "COMPOUND": "CC(C)=CCC[C@](C)(O[C@@H]1O[C@H](CO)[C@@H](O)[C@H](O)[C@H]1O)[C@H]1CC[C@]2(C)[C@@H]1[C@H](O)C[C@@H]1[C@@]3(C)CC[C@H](O[C@@H]4O[C@H](CO)[C@@H](O)[C@H](O)[C@H]4O[C@@H]4O[C@H](CO)[C@@H](O)[C@H](O)[C@H]4O)C(C)(C)[C@@H]3CC[C@]12C [ginsenoside Rd]",
    "Accumulative excretion percentage [%]": 0.018
  },
  {
    "COMPOUND": "CC(C)=CCC[C@](C)(O[C@@H]1O[C@H](CO[C@@H]2O[C@H](CO)[C@@H](O)[C@H](O)[C@H]2O)[C@@H](O)[C@H](O)[C@H]1O)[C@H]1CC[C@]2(C)[C@@H]1[C@H](O)C[C@@H]1[C@@]3(C)CC[C@H](O[C@@H]4O[C@H](CO)[C@@H](O)[C@H](O)[C@H]4O[C@@H]4O[C@H](CO)[C@@H](O)[C@H](O)[C@H]4O)C(C)(C)[C@@H]3CC[C@]12C [ginsenoside Rb1]",
    "Accumulative excretion percentage [%]": 0.037
  },
  {
    "COMPOUND": "CC(C)=CCC[C@](C)(O[C@@H]1O[C@H](CO)[C@@H](O)[C@H](O)[C@H]1O)[C@H]1CC[C@]2(C)[C@@H]1[C@H](O)C[C@@H]1[C@@]3(C)CC[C@H](O)C(C)(C)[C@@H]3[C@@H](O[C@@H]3O[C@H](CO)[C@@H](O)[C@H](O)[C@H]3O[C@@H]3O[C@@H](C)[C@H](O)[C@@H](O)[C@H]3O)C[C@]12C [ginsenoside Re]",
    "Accumulative excretion percentage [%]": 0.097
  },
  {
    "COMPOUND": "CC(C)=CCC[C@](C)(O[C@@H]1O[C@H](CO)[C@@H](O)[C@H](O)[C@H]1O)[C@H]1CC[C@]2(C)[C@@H]1[C@H](O)C[C@@H]1[C@@]3(C)CC[C@H](O)C(C)(C)[C@@H]3[C@@H](O[C@@H]3O[C@H](CO)[C@@H](O)[C@H](O)[C@H]3O)C[C@]12C [ginsenoside Rg1]",
    "Accumulative excretion percentage [%]": 0.293
  }
]
